# test summary: Cytotoxicity MTS assay, HEK293
# Assay type: cell-based
# assay conditions: human, HEK293 cells, 24 h exposure, IC50 ± SE
# Experimental: The human hepatocyte carcinoma HepG2 (ECACC 85011430), human embryo kidney HEK293 (ECACC 85120602) and human neuroblastoma SH-SY5Y (ECACC 94030304) cell lines were obtained from the certified cell-bank European Collection of Authenticated Cell Cultures (ECACC) through Sigma-Aldrich (Steinheim, Germany). […] The cytotoxic profiles of tested compounds were determined by measuring the succinate dehydrogenase mitochondrial activity of exposed cells. […]
metric: IC50 at 24 h
Your answer should be a number followed by the unit of measure.

Completed entries (count: 2):
| chemical structure | IC50 at 24 h |
| --- | --- |
| CCN(CC)Cc1cc(Nc2ccnc3ccc(C#N)cc23)ccc1O | 88 µM |
| CCN(CC)Cc1cc(Nc2ccnc3ccccc23)ccc1O | 350 µM |

Now, please, on to the next molecule.
Please give the measured IC50 at 24 h for this molecule: "CCN(CC)Cc1cc(Nc2ccnc3cccc(C(=O)O)c23)ccc1O"
103 µM
